# tested-on: Prostaglandin G/H synthase 1 (Homo sapiens, UniProt P23219)
# Sequence (P23219 whole entry): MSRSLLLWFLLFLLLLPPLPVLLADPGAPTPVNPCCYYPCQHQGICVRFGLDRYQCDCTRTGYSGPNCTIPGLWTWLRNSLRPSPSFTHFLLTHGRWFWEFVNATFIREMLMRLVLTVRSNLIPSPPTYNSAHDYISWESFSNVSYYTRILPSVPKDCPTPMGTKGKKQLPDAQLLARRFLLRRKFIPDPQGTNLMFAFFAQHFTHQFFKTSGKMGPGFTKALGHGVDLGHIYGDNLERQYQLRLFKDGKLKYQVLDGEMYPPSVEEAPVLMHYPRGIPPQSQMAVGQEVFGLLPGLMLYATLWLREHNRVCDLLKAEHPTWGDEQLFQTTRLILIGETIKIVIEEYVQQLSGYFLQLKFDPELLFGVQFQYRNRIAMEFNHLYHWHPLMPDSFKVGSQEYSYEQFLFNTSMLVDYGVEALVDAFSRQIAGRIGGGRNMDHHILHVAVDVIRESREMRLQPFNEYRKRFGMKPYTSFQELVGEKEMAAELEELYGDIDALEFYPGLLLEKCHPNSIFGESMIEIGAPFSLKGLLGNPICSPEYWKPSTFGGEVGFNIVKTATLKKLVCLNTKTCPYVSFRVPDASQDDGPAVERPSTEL
# protocol-description: Inhibition of human recombinant COX1 expressed in Sf9 cell microsomes assessed as reduction in conversion of arachidonic acid to PGE2 incubated for 5 mins by HTRF assay
property-measured: IC50
I'd appreciate it if you included the unit after the number.

Task: Would you mind telling me what IC50 value was observed for O=C(O)c1ccccc1O [SALICYLIC ACID] ?
Result: 500 µM

* * *

Reported values of pIC50 for individual entries
# tested-on: UniProt:P0C6X7
On this scale, pIC50 is minus log10 of a concentration expressed in M (mol/L).

Example entries and their recorded answers appear below.
CC(=O)N[C@@H](CC(=O)O)C(=O)N[C@@H](CO)C(=O)N[C@H](C(=O)N[C@@H](CC(C)C)C(=O)N[C@H](C=O)CCC(N)=O)[C@@H](C)O ... 5.00
CC(=O)N[C@@H](CCC(=O)O)C(=O)N[C@@H](CO)C(=O)N[C@H](C(=O)N[C@@H](CC(C)C)C(=O)N[C@H](C=O)CCC(N)=O)[C@@H](C)O ... 5.12
CC(=O)N[C@@H](CC(N)=O)C(=O)N[C@@H](CO)C(=O)N[C@H](C(=O)N[C@@H](CO)C(=O)N[C@H](C=O)CCC(N)=O)[C@@H](C)O ... 5.12

Okay, next one:
Task: Would you mind telling me what pIC50 value was observed for CC(=O)N[C@@H](CC(N)=O)C(=O)N[C@@H](CO)C(=O)N[C@H](C(=O)N[C@@H](CC(=O)O)C(=O)N[C@H](C=O)CCC(N)=O)[C@@H](C)O ?
Result: 4.70

* * *

# tested-on: Acetylcholinesterase (Homo sapiens, UniProt P22303)
# Sequence (P22303 whole entry): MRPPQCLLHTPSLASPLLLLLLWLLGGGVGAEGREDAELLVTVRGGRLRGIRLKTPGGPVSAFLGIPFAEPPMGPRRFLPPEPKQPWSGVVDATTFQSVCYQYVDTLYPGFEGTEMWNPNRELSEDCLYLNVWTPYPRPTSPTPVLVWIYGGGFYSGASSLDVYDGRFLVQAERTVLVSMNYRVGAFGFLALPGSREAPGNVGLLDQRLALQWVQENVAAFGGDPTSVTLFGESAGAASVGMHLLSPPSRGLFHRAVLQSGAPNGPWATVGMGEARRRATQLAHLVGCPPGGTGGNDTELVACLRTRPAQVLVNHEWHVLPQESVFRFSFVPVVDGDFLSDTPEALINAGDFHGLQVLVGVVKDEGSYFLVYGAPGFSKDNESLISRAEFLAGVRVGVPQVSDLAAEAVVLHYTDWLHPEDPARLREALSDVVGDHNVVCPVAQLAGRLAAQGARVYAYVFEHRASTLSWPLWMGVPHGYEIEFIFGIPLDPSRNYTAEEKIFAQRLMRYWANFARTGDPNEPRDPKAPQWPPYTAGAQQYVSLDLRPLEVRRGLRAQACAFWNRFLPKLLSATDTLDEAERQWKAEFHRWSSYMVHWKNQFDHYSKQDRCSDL
property-measured: IC50 (nM)
Kindly provide the numeric value in nM only, without the unit symbol.

Task: Would you mind telling me what IC50 value was observed for Cc1ccc(Nc2nccc(N(C)c3ccc4c(C)n(C)nc4c3)n2)cc1S(N)(=O)=O ?
Result: 930
